assay: Oral pharmacokinetics; format: in vivo; conditions: po; brain and plasma; read-out: elimination half-lives in the brain and plasma
measured_quantity: half-life

Look at this molecule and give its reported half-life. "CCOc1cccc(OCCN(C)C)c1C(=O)Nc1ccc(Cl)c(C(F)(F)F)c1" ~1 h

###

assay: Pharmacokinetics and BBB penetration after i.p. and i.v. administration (LC-MS/MS); assay type: in vivo, BALB/c mice; conditions: BALB/c, mouse; IP, 20 mg/kg, brain; read-out: t½ (converted)
measured_quantity: half-life (min)
Give bare numbers, in min.

Which half-life reading was recorded for the compound CCOc1cccc(OCCN(C)C)c1C(=O)Nc1ccc(Cl)c(C(F)(F)F)c1 [Compound 1] ? 37.8
